Attribution: paper PMC11729428

- Study Target: hERG potassium channel (Homo sapiens, UniProt Q12809)
- Sequence (Q12809 whole entry): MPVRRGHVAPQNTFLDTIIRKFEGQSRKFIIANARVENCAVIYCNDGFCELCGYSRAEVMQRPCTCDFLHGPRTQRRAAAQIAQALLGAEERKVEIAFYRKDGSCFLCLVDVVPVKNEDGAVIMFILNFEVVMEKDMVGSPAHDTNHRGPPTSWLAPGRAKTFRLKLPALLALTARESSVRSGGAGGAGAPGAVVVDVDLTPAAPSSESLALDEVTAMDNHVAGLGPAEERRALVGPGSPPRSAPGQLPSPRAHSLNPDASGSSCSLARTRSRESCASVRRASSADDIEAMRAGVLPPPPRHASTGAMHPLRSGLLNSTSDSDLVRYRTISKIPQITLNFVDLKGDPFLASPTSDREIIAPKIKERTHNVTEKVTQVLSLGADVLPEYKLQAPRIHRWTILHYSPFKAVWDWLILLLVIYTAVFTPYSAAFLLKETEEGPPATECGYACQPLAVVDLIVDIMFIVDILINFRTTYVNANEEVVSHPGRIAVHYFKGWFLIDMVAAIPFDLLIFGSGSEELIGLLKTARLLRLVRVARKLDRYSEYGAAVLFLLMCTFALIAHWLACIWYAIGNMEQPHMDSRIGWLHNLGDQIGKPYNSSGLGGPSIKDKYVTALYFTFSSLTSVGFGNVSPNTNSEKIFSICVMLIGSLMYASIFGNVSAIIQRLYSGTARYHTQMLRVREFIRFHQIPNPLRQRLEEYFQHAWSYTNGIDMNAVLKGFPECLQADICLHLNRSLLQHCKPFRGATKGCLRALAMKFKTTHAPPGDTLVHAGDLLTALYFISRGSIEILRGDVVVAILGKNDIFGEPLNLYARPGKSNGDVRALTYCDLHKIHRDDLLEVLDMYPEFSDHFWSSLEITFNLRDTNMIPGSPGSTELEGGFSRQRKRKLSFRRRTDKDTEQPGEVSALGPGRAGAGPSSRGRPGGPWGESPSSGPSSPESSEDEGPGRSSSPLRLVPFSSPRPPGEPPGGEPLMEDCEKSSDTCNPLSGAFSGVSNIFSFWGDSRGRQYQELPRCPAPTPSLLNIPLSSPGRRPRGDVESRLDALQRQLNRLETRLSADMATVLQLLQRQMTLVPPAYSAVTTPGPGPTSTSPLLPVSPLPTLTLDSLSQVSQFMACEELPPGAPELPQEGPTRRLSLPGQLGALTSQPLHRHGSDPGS
- Assay: in vitro
- Reported Conditions: CHO-K1 cells (hERG current)
Metric Name: inhibition at 3.7 µM (%)
Report the value in % with no unit label.

// query What inhibition at 3.7 µM value was documented for this compound, `Cc1cccc(-c2nn3c(c2-c2ccnc4ccc(O)cc24)CCC3)n1` ?
// result 1.8

====

- Assay: Plasma pharmacokinetics after single oral administration in rats
- Format: in vivo, Sprague Dawley rats
- Reported Conditions: male, Sprague-Dawley, rat, plasma, rats (♂ SD), 71 mg/kg
Metric Name: CL/F (mL/min/kg)
Report the value in mL/min/kg with no unit label.

// query What CL/F value was documented for this compound, `Cc1cccc(-c2nn3c(c2-c2ccnc4ccc(O)cc24)CCC3)n1` ?
// result 53.8

====

- Assay: Plasma protein binding by rapid equilibrium dialysis, rat plasma
- Reported Conditions: rat, plasma, pH 7.4
Metric Name: fraction unbound at 4 h, 5 µM

// query What fraction unbound at 4 h, 5 µM value was documented for this compound, `Cc1cccc(-c2nn3c(c2-c2ccnc4ccc(O)cc24)CCC3)n1` ?
// result 0.049

====

- Assay: Plasma pharmacokinetics after single oral administration in mice
- Assay type: in vivo
- Reported Conditions: male, mouse, mice (♂ BALB/c), 71 mg/kg, read-out: Vss/F
Metric Name: Vd/F (L/kg)
Report the value in L/kg with no unit label.

// query What Vd/F value was documented for this compound, `Cc1cccc(-c2nn3c(c2-c2ccnc4ccc(O)cc24)CCC3)n1` ?
// result 66.7

====

- Assay: Plasma pharmacokinetics after single oral administration in mice
- Format: in vivo
- Reported Conditions: male, mouse, mice (♂ BALB/c), 71 mg/kg
- Method: We assessed the in vivo pharmacokinetic properties of HYL001 after a single oral administration (dose of 71 mg/kg) in BALB/c mice as well as in Sprague–Dawley (SD) Rats. Liquid chromatography–tandem mass spectrometry (LC/MS/MS) was used for the determination of HYL001 in plasma (Figure S2 and Table 2). 6. Methods for in vivo characterizations of HYL001 […] WinNonlin software (Version 8.0) […]
Metric Name: AUC(0-t) (ng·h/mL)
Report the value in ng·h/mL with no unit label.

// query What AUC(0-t) value was documented for this compound, `Cc1cccc(-c2nn3c(c2-c2ccnc4ccc(O)cc24)CCC3)n1` ?
// result 3520

====

- Assay: Solubility
- Type: physicochemical
- Reported Conditions: aqueous dosing vehicle (NaCMC/SDS/PVP/antifoam-A), aqueous with cosolvent or surfactant or cyclodextrin; vehicle: sodium carboxymethylcellulose (1%), sodium dodecyl sulfate (0.4%), polyvinylpyrrolidone (0.085%), antifoam-A (0.05%); read-out: Solubility
Metric Name: solubility

1. Cc1cccc(-c2nn3c(c2-c2ccnc4ccc(O)cc24)CCC3)n1    ~90 µg/mL

Could you now look at the following molecule, please?
// query What solubility value was documented for this molecule, `Cc1cccc(-c2nn3c(c2-c2ccnc4ccc(C(N)=O)cc24)CCC3)n1` ?
// result ~150 µg/mL

====

- Assay: Plasma pharmacokinetics after single oral administration in mice
- Assay type: in vivo
- Reported Conditions: male, BALB/c, mouse, po, 71 mg/kg
Metric Name: half-life

// query What half-life value was documented for this compound, `Cc1cccc(-c2nn3c(c2-c2ccnc4ccc(O)cc24)CCC3)n1` ?
// result ~150 min

====

- Study Target: ACVR2B (Homo sapiens)
- Construct: purchased Eurofins/DiscoveryX (KINOMEscan service)
- Sequence (Q13705 19-512): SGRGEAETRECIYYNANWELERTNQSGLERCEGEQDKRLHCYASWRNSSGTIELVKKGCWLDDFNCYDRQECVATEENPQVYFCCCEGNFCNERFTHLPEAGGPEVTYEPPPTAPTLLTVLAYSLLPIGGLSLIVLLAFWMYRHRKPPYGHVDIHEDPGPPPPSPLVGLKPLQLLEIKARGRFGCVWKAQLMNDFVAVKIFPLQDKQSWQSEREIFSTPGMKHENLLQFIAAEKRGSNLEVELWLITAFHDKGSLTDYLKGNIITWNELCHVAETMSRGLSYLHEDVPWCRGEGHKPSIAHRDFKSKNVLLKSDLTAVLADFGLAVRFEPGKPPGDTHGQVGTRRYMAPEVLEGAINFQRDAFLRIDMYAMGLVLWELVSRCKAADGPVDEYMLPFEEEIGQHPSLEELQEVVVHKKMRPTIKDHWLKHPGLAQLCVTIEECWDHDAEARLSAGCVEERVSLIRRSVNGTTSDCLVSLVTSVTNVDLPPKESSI
- Assay: KINOMEscan competitive binding assay (Kd)
- Reported Conditions: analyses herein; read-out: Binding constant (Kd) ACVR2B
Metric Name: Kd (nM)
Report the value in nM with no unit label.

// query Please state recorded Kd (tested on ACVR2B (Homo sapiens)) of Cc1cccc(-c2nn3c(c2-c2ccnc4ccc(O)cc24)CCC3)n1 [HYL001]
// result 100

====

- Assay: Plasma pharmacokinetics after single oral administration in rats
- Assay type: in vivo, Sprague Dawley rats
- Reported Conditions: male, Sprague-Dawley, rat, plasma, rats (♂ SD), 71 mg/kg
- Description: We assessed the in vivo pharmacokinetic properties of HYL001 after a single oral administration (dose of 71 mg/kg) in BALB/c mice as well as in Sprague–Dawley (SD) Rats. Liquid chromatography–tandem mass spectrometry (LC/MS/MS) was used for the determination of HYL001 in plasma (Figure S2 and Table 2). 6. Methods for in vivo characterizations of HYL001 Similarly, three rats were used in this study. Animals were administered orally with a suspension formulation of […]
Metric Name: AUC(0-t) (ng·h/mL)
Report the value in ng·h/mL with no unit label.

// query What AUC(0-t) value was documented for this molecule, `Cc1cccc(-c2nn3c(c2-c2ccnc4ccc(O)cc24)CCC3)n1` ?
// result 21600

====

- Assay: Plasma pharmacokinetics after single oral administration in mice
- Assay type: in vivo
- Reported Conditions: male, mouse, mice (♂ BALB/c), 71 mg/kg
- Experimental: We assessed the in vivo pharmacokinetic properties of HYL001 after a single oral administration (dose of 71 mg/kg) in BALB/c mice as well as in Sprague–Dawley (SD) Rats. Liquid chromatography–tandem mass spectrometry (LC/MS/MS) was used for the determination of HYL001 in plasma (Figure S2 and Table 2). 6. Methods for in vivo characterizations of HYL001 […] WinNonlin software (Version 8.0) […]
Metric Name: CL/F
For clarity, give the value followed by its unit.

// query What CL/F value was documented for this compound, `Cc1cccc(-c2nn3c(c2-c2ccnc4ccc(O)cc24)CCC3)n1` ?
// result 288 mL/min/kg

====

- Assay: Plasma protein binding by rapid equilibrium dialysis, human plasma
- Reported Conditions: human, plasma, pH 7.4, % Bound Mean ± SD, human plasma, 5 µM, n=3
Metric Name: fraction unbound at 4 h, 5 µM
Please give the numeric answer without any surrounding text.

// query What fraction unbound at 4 h, 5 µM value was documented for this compound, `Cc1cccc(-c2nn3c(c2-c2ccnc4ccc(O)cc24)CCC3)n1` ?
// result 0.084

====

- Assay: Plasma protein binding by rapid equilibrium dialysis, human plasma
- Reported Conditions: human, plasma, pH 7.4, % Free fraction, human plasma
Metric Name: fraction unbound at 4 h, 5 µM
Please give the numeric answer without any surrounding text.

// query What fraction unbound at 4 h, 5 µM value was documented for this molecule, `Cc1cccc(-c2nn3c(c2-c2ccnc4ccc(O)cc24)CCC3)n1` ?
// result 0.084

====

- Assay: Plasma pharmacokinetics after single oral administration in rats
- Type: in vivo, Sprague Dawley rats
- Reported Conditions: male, Sprague-Dawley, rat, plasma, rats (♂ SD), 71 mg/kg
Metric Name: Tmax (min)
Report the value in min with no unit label.

// query What Tmax value was documented for this compound, Cc1cccc(-c2nn3c(c2-c2ccnc4ccc(O)cc24)CCC3)n1 [HYL001] ?
// result 40.2
